- Tested on: HL-60
- Protocol description: Cytotoxicity against human HL60 cells after 72 hrs by trypan blue exclusion assay
- Type: functional, cell-based
- Stated conditions: HL-60, 72 h
I'd be grateful if you could share measured log10(IC50) for these entries.
Heads up, the numbers here are log10 of IC50 in nM units.

So for CCOc1ccc(/C=C/C(=O)c2ccc(OCC(=O)O[C@@H]3O[C@@H]4O[C@]5(C)CC[C@H]6[C@H](C)CC[C@@H]([C@H]3C)[C@@]46OO5)cc2)cc1 , the logged log10(IC50) turned out to be 2.87

// field: log10(IC50); key: COc1ccc(/C=C/C(=O)c2ccc(OCC(=O)O[C@@H]3O[C@@H]4O[C@]5(C)CC[C@H]6[C@H](C)CC[C@@H]([C@H]3C)[C@@]46OO5)cc2)cc1 ; value = 2.60

molecule COc1cc(/C=C/C(=O)c2ccc(OCCO[C@H]3O[C@@H]4O[C@]5(C)CC[C@H]6[C@H](C)CC[C@@H]([C@H]3C)[C@@]46OO5)cc2)cc(OC)c1OC , log10(IC50) observed: 2.34

Lab note: C[C@H]1[C@@H](O)O[C@@H]2O[C@@]3(C)CC[C@H]4[C@H](C)CC[C@@H]1[C@@]24OO3 gave log10(IC50) of 3.46

Recorded log10(IC50) (molecule C[C@H]1[C@H](OC(=O)COc2ccc(C(=O)/C=C/c3ccc(Cl)cc3)cc2)O[C@@H]2O[C@]3(C)CC[C@H]4[C@H](C)CC[C@@H]1[C@@]24OO3 ): 2.73
